Below, each entry is listed alongside its reported Normalized Jmax.
biological target: human NTCP (Homo sapiens); test: Uptake study on NTCP-HEK293 cells; assay type: cell-based; settings: Jmax of compound normalized against Jmax of taurocholate
Sequence (Q14973 whole entry): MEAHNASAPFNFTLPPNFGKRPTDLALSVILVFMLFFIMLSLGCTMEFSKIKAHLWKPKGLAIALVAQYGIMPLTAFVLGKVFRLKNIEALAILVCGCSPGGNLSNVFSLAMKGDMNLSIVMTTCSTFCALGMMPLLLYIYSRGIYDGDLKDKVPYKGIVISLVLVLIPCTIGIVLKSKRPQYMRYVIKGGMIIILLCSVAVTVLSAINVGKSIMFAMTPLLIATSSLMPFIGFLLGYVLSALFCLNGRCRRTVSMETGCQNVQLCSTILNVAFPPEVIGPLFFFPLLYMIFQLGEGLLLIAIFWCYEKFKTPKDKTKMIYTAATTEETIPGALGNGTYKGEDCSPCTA

// below: answered compounds
C[C@H](CCC(=O)NCCS(=O)(=O)O)[C@H]1CC[C@H]2[C@@H]3[C@H](O)C[C@@H]4C[C@H](O)CC[C@]4(C)[C@H]3C[C@H](O)[C@]12C [TCA, taurocholate] = 0.708 ± 0.057
C[C@H](CCC(=O)N[C@@H](CCC(=O)OCc1ccccc1)C(=O)O)[C@H]1CC[C@H]2[C@@H]3[C@H](O)C[C@@H]4C[C@H](O)CC[C@]4(C)[C@H]3CC[C@]12C = 0.233 ± 0.036
C[C@H](CCC(=O)NCC(=O)O)[C@H]1CC[C@H]2[C@@H]3[C@H](O)C[C@@H]4C[C@H](O)CC[C@]4(C)[C@H]3C[C@H](O)[C@]12C [GCA, glycocholate] = 0.508 ± 0.041
CCCCC1=NC2(CCCC2)C(=O)N1Cc1ccc(-c2ccccc2-c2nnn[nH]2)cc1 = 0.172 ± 0.022
C[C@H](CCC(=O)O)[C@H]1CC[C@H]2[C@@H]3[C@@H](O)C[C@@H]4C[C@H](O)CC[C@]4(C)[C@H]3CC[C@]12C [UDCA, ursodeoxycholate] = 0.0511 ± 0.0093
C[C@H](CCC(=O)NCC(=O)O)[C@H]1CC[C@H]2[C@@H]3[C@H](O)C[C@@H]4C[C@H](O)CC[C@]4(C)[C@H]3CC[C@]12C [GCDCA, glycochenodeoxycholate] = 0.726 ± 0.091

For the compound shown here, C[C@H](CCC(=O)NCCS(=O)(=O)O)[C@H]1CC[C@H]2[C@@H]3[C@@H](O)C[C@@H]4C[C@H](O)CC[C@]4(C)[C@H]3CC[C@]12C [TUDCA, tauroursodeoxycholate] , give the reported Normalized Jmax. 0.409 ± 0.038

For the compound shown here, C[C@H](CCC(=O)NCCS(=O)(=O)O)[C@H]1CC[C@H]2[C@@H]3CC[C@@H]4C[C@H](O)CC[C@]4(C)[C@H]3CC[C@]12C [TLCA, taurolithocholate] , give the reported Normalized Jmax. 0.495 ± 0.053

For the compound shown here, CC(C)[C@H](NC(=O)CC[C@@H](C)[C@H]1CC[C@H]2[C@@H]3[C@H](O)C[C@@H]4C[C@H](O)CC[C@]4(C)[C@H]3CC[C@]12C)C(=O)O , give the reported Normalized Jmax. 0.330 ± 0.031

For the compound shown here, C[C@H](CCC(=O)NCC(=O)O)[C@H]1CC[C@H]2[C@@H]3[C@@H](O)C[C@@H]4C[C@H](O)CC[C@]4(C)[C@H]3CC[C@]12C [GUDCA, glycoursodeoxycholate] , give the reported Normalized Jmax. 0.460 ± 0.143

For the compound shown here, C[C@H](CCC(=O)O)[C@H]1CC[C@H]2[C@@H]3[C@H](O)C[C@@H]4C[C@H](O)CC[C@]4(C)[C@H]3C[C@H](O)[C@]12C [CA, cholate] , give the reported Normalized Jmax. 0.523 ± 0.081

For the compound shown here, C[C@H](CCC(=O)NCC(=O)O)[C@H]1CC[C@H]2[C@@H]3CC[C@@H]4C[C@H](O)CC[C@]4(C)[C@H]3CC[C@]12C [GLCA, glycolithocholate] , give the reported Normalized Jmax. 0.384 ± 0.070

For the compound shown here, C[C@H](CCC(=O)NCCS(=O)(=O)O)[C@H]1CC[C@H]2[C@@H]3[C@H](O)C[C@@H]4C[C@H](O)CC[C@]4(C)[C@H]3CC[C@]12C [TCDCA, taurochenodeoxycholate] , give the reported Normalized Jmax. 0.621 ± 0.058

meta.source: paper PMC4430447
